The measurements presented in this section are drawn from patent US10233180B2.

Kindly supply the reported log10 IC50 values for the records listed here.
Tested on: Human ovarian cancer cell strain OVCAR-8
Experiment: MTT assay, inhibition of tumor cell growth in vitro, 72 h
Assay type: cell-based
Details: Homo sapiens, OVCAR-8, MTT, read-out: Antitumor proliferative activities of tumor cell (IC50, μM) OVCAR-8
Method: First, inhibitory activity on tumor proliferation in vitro is determined and the structure activity relationship is preliminarily studied, in which different solid tumor cell strains are selected for determining the antitumor activities in vitro of the synthesized compounds. Cell strains: Human ovarian cancer cell strain (OVCAR8), colon adenocarcinoma cell strain (HCT-116) Medium: OVCAR8: RPMI 1640+Fetal Bovine Serum […]
For clarity, the numbers are log10 values of IC50 expressed in µM.

[Q] // lookup log10 IC50 for Cn1ncc(Br)c1-c1coc(C(=O)N[C@H]2CNCC[C@@H]2c2ccccc2)c1 (racemic)
[A] 0.90

[Q] // lookup log10 IC50 for `Cc1occc1-c1cc(-c2c(Cl)cnn2C)ccc1C(=O)N[C@@H]1CNCC[C@H]1c1cccc(F)c1`
[A] 0.03

[Q] // lookup log10 IC50 for `Cn1ncc(Cl)c1-c1cc(C(=O)N[C@@H]2CNCC[C@H]2c2ccc(C(F)(F)F)cc2)oc1Cl`
[A] 0.27

[Q] // lookup log10 IC50 for `Cn1ncc(Br)c1-c1ccc(C(=O)N[C@@H]2CNCC[C@H]2c2ccc(Cl)cc2)cc1`
[A] 0.13

[Q] // lookup log10 IC50 for Cn1ncc(Br)c1-c1coc(C(=O)N[C@H]2CNCC[C@@H]2c2ccc(F)c(F)c2)c1 (racemic)
[A] 0.53

[Q] // lookup log10 IC50 for CNS(=O)(=O)CC1C[C@@H](c2ccc(F)c(F)c2)[C@H](NC(=O)c2ccc(-c3c(Cl)cnn3C)c(F)c2)CN1 (stereo partly shown)
[A] -0.37

[Q] // lookup log10 IC50 for `CCc1cnn(C)c1-c1cc(F)c(C(=O)N[C@@H]2CNCC[C@H]2c2ccc(Cl)c(C(F)(F)F)c2)c(F)c1`
[A] 0.34
